# TEST TARGET: Rat IL-23R_huFC (rat)
# EXPERIMENT NOTES: rat ELISA vs IL-23
pIC50: −log10 of the molar value. *1 amine or outer side, *2 acyl side, *3 side chain or, on linkers, in order; H or OH if unused. Bridges are numbered along the chain shown (N, C = ends). Primed or numbered codes have the meaning given here. [ ]: non-standard residue; d: D form. Phe(4-OMe)(3) = O-methyl-L-tyrosine (4-methoxy-L-phenylalanine), COc1ccc(C[C@H](N[*:1])C(=O)[*:2])cc1; Phe(3,4-(OMe)2) = COc1ccc(C[C@H](N)C(=O)O)cc1OC; Tyr(Ph) = N[C@@H](Cc1ccc(Oc2ccccc2)cc1)C(=O)O; 2Nal = N[C@@H](Cc1ccc2ccccc2c1)C(=O)O; AEF = NCCOc1ccc(C[C@H](N)C(=O)O)cc1; αMeK = C[C@](N)(CCCCN)C(=O)O; Abu = CC[C@H](N)C(=O)O
MEASURED METRIC: pIC50

Entry under review: Ac-[Abu]QTWQC[2Nal][2Nal][αMeK]ENG-NH2 (thioether 1-6) [Ac-Cyclo-[[Abu]-QTWQC]-[2-Nal]-[2-Nal]-[α-MeLys]-ENG-NH2] . Reported pIC50?
7.00 to 7.60

Could you do the same for Ac-[Abu]QTWQC[Phe(4-OMe)(3)][2Nal][αMeK]K(Ac)QG-NH2 (thioether 1-6) [Ac-Cyclo-[[Abu]-QTWQC]-[Phe(4-OMe)]-[2-Nal][α-MeLys]-[Lys(Ac)]-QG-NH2] , please?
7.00 to 7.60

Could you do the same for XQTWQCFXXENG (as bracketed in name; thioether cyclo) [Ac-Cyclo-[[Abu]-QTWQC]-[Phe(4-OMe)]-[2-Nal]-[α-MeOrn]-ENG-NH2] , please?
7.00 to 7.60

Could you do the same for Ac-[Abu]QTWQC[AEF][Phe(3,4-(OMe)2)][αMeK]K(Ac)NG-NH2 (thioether 1-6) [Ac-Cyclo-[[Abu]-QTWQC]-[Phe[4-(2-aminoethoxy)]]-[Phe(3,4-OMe2]-[α-MeLys]-[Lys(Ac)]-NG-NH2] , please?
7.00 to 7.60

Could you do the same for Ac-[Abu]QTWQC[Tyr(Ph)]W[αMeK]ENG-NH2 (thioether 1-6) [Ac-Cyclo-[[Abu]-QTWQC]-[Phe(4-phenoxy)]-W-[α-MeLys]-ENG-NH2] , please?
7.00 to 7.60

Further cases:
Entry under review: XQTWQCFWXENG (as bracketed in name; thioether cyclo) [Ac-Cyclo-[[Abu]-QTWQC]-[Phe(4-OMe)]-W-[α-MeOrn]-ENG-NH2] . Reported pIC50?
7.00 to 7.60

Values compiled from patent US20190300590A1.
